system: Providencia sp. KY3950; assay: antibacterial activity (MIC); assay type: cell-based; conditions: medium pH 7.2, Japanese Antibiotic Medicament Standard; unit assumed
OBSERVATION_TYPE: antibacterial activity (MIC)

COC1C(O)C(N)C(OC2OC(C(C)N)CCC2NC[C@@H](O)CCN)C(O)C1N(C)C[C@@H](O)CCN (stereo partly shown); 1.56 µg/mL
CNC1C(O)C(OC2OC(C(C)N)CCC2N)C(N)C(O)C1OC (stereo not shown); > 100 µg/mL
COC1C(O)C(N)C(OC2OC(C(C)N)CCC2NC(=O)CN)C(O)C1N(C)C[C@@H](O)CCN (stereo partly shown); 6.25 µg/mL
COC1C(O)C(N)C(OC2OC(C(C)N)CCC2NC(=O)[C@@H](O)CCN)C(O)C1N(C)C[C@@H](O)CCN (stereo partly shown); 6.25 µg/mL

* * *

system: Providencia sp. KY3950; assay: antibacterial activity (MIC); format: cell-based; conditions: medium pH 7.2, Japanese Antibiotic Medicament Standard; unit assumed
OBSERVATION_TYPE: antibacterial activity (MIC)

COC1C(O)C(N)C(OC2OC(C(C)N)CCC2N)C(O)C1N(C)C(=O)CNC(N)=O (centres unmarked) [Compound 3, fortimicin C, reference compound]; 25 µg/mL
COC1C(O)C(N)C(OC2OC(C(C)N)CCC2NCCN)C(O)C1N(C)C[C@@H](O)CCN (some centres unmarked) [Compound 7]; 6.25 µg/mL
COC1C(O)C(N)C(OC2OC(C(C)N)CCC2NCCO)C(O)C1N(C)C[C@@H](O)CCN (some centres unmarked) [Compound 10]; 12.5 µg/mL
COC1C(O)C(N)C(OC2OC(C(C)N)CCC2NCCN)C(O)C1N(C)CCN (centres unmarked) [Compound 5, 4,2'-di-N-(2-aminoethyl)fortimicin B]; 12.5 µg/mL
NC[C@H]1O[C@H](O[C@H]2[C@H](O)[C@@H](O[C@H]3O[C@H](CO)[C@@H](O)[C@H](N)[C@H]3O)[C@H](N)C[C@@H]2N)[C@H](O)[C@@H](O)[C@@H]1O [KA, kanamycin A, reference compound]; 12.5 µg/mL

* * *

Recorded antibacterial activity (MIC) for the following compounds
system: Staphylococcus aureus 209-p; test: antibacterial activity (MIC); assay type: cell-based; conditions: medium pH 7.2, Japanese Antibiotic Medicament Standard; unit assumed
OBSERVATION_TYPE: antibacterial activity (MIC) (µg/mL)

COC1C(O)C(N)C(OC2OC(C(C)N)CCC2NC(=O)[C@@H](O)CCN)C(O)C1N(C)C[C@@H](O)CCN (stereo partly drawn); 0.78
COC1C(O)C(N)C(OC2OC(C(C)N)CCC2NCCN)C(O)C1N(C)CCN (stereo not drawn); 1.56
NC[C@H]1O[C@H](O[C@H]2[C@H](O)[C@@H](O[C@H]3O[C@H](CO)[C@@H](O)[C@H](N)[C@H]3O)[C@H](N)C[C@@H]2N)[C@H](O)[C@@H](O)[C@@H]1O [KA, kanamycin A, reference compound]; 0.4
COC1C(O)C(N)C(OC2OC(C(C)N)CCC2N)C(O)C1N(C)C(=O)CN (stereo not drawn) [Compound 2, fortimicin A, reference compound]; 0.78
COC1C(O)C(N)C(OC2OC(C(C)N)CCC2NCCN)C(O)C1N(C)C[C@@H](O)CCN (stereo partly drawn); 0.78
COC1C(O)C(N)C(OC2OC(C(C)N)CCC2NC[C@@H](O)CCN)C(O)C1N(C)C[C@@H](O)CCN (stereo partly drawn); 0.78
